# Target entity: SARS-CoV-2 M^pro (Severe acute respiratory syndrome coronavirus 2, UniProt P0DTD1)
Non-standard residues stand in square brackets, D forms with d. Residues, ends and D or L forms follow the SMILES beside them. *: point of attachment. Cha = N[C@@H](CC1CCCCC1)C(=O)O; Tle = CC(C)(C)[C@H](N)C(=O)O; Nva = CCC[C@H](N)C(=O)O; Cbz = O=C(OCc1ccccc1)*; Boc = CC(C)(C)OC(=O)*
Recorded endpoint: IC50 (µM)

[[record]]
compound = "CSCC[C@@H](C=O)NC(=O)[C@H](CC(C)C)NC(=O)[C@H](CC1CCCCC1)NC(C)=O [Jun9-66-2] (Ac-[Cha]-Leu-Met-aldehyde)"
target_entity = "SARS-CoV-2 M^pro (Severe acute respiratory syndrome coronavirus 2, UniProt P0DTD1)"
recorded_endpoint = "IC50"
comparison_sign = "="
quantitative_readout = 0.29

[[record]]
compound = "CSCC[C@@H](C=O)NC(=O)[C@H](CC(C)C)NC(C)=O [Jun8-102-1] (Ac-Leu-Met-aldehyde)"
target_entity = "SARS-CoV-2 M^pro (Severe acute respiratory syndrome coronavirus 2, UniProt P0DTD1)"
recorded_endpoint = "IC50"
comparison_sign = "="
quantitative_readout = 4.77

[[record]]
compound = "CCC[C@H](NC(=O)[C@H](CC(C)C)NC(=O)CNC(=O)OCc1ccccc1)C(=O)C(=O)NC1CC1 [Jun9-52-4]"
target_entity = "SARS-CoV-2 M^pro (Severe acute respiratory syndrome coronavirus 2, UniProt P0DTD1)"
recorded_endpoint = "IC50"
comparison_sign = "="
quantitative_readout = 17.7

[[record]]
compound = "CSCC[C@@H](C=O)NC(=O)[C@H](CC(C)C)NC(=O)[C@H](Cc1ccccc1)NC(C)=O [Jun9-2-5] (Ac-Phe-Leu-Met-aldehyde)"
target_entity = "SARS-CoV-2 M^pro (Severe acute respiratory syndrome coronavirus 2, UniProt P0DTD1)"
recorded_endpoint = "IC50"
comparison_sign = "="
quantitative_readout = 0.27

[[record]]
compound = "CC(=O)N[C@@H](Cc1ccccc1)C(=O)N[C@@H](CC(C)C)C(=O)N[C@@H](CC[S+](C)[O-])C(=O)C(=O)NC1CC1 (stereo partly drawn) [Jun9-24-4]"
target_entity = "SARS-CoV-2 M^pro (Severe acute respiratory syndrome coronavirus 2, UniProt P0DTD1)"
recorded_endpoint = "IC50"
comparison_sign = "="
quantitative_readout = 0.29

[[record]]
compound = "CCC[C@H](NC(C)=O)C(=O)N[C@@H](CC(C)C)C(=O)N[C@@H](CCSC)C(=O)C(=O)NC1CC1 [Jun9-24-5]"
target_entity = "SARS-CoV-2 M^pro (Severe acute respiratory syndrome coronavirus 2, UniProt P0DTD1)"
recorded_endpoint = "IC50"
comparison_sign = "="
quantitative_readout = 0.64

[[record]]
compound = "CCC[C@H](NC(=O)[C@H](CC(C)C)NC(=O)[C@H](CC(C)C)NC(C)=O)C(=O)C(=O)NC1CC1 [Jun9-49-1]"
target_entity = "SARS-CoV-2 M^pro (Severe acute respiratory syndrome coronavirus 2, UniProt P0DTD1)"
recorded_endpoint = "IC50"
comparison_sign = "="
quantitative_readout = 5.89

[[record]]
compound = "CCC[C@H](NC(=O)[C@H](CC(C)C)NC(=O)OCc1ccccc1)C(=O)C(=O)NC1CC1 [Jun8-18-2]"
target_entity = "SARS-CoV-2 M^pro (Severe acute respiratory syndrome coronavirus 2, UniProt P0DTD1)"
recorded_endpoint = "IC50"
comparison_sign = ">"
quantitative_readout = 20

[[record]]
compound = "CSCC[C@H](NC(=O)[C@H](CC(C)C)NC(=O)[C@H](CC(C)C)NC(=O)OCc1ccccc1)C(=O)C(=O)NC1CC1 [Jun8-43-3]"
target_entity = "SARS-CoV-2 M^pro (Severe acute respiratory syndrome coronavirus 2, UniProt P0DTD1)"
recorded_endpoint = "IC50"
comparison_sign = "="
quantitative_readout = 2.8

[[record]]
compound = "CSCC[C@H](NC(=O)[C@H](CC1CCCCC1)NC(=O)[C@@H](NC(C)=O)C(C)(C)C)C(=O)C(=O)NC1CC1 [Jun9-66-3]"
target_entity = "SARS-CoV-2 M^pro (Severe acute respiratory syndrome coronavirus 2, UniProt P0DTD1)"
recorded_endpoint = "IC50"
comparison_sign = "="
quantitative_readout = 1.52

[[record]]
compound = "CC(=O)N[C@@H](CC(C)C)C(=O)N[C@@H](CC(C)C)C(=O)N[C@@H](CC[S+](C)[O-])C(=O)C(=O)NC1CC1 (stereo partly drawn) [Jun9-59-2]"
target_entity = "SARS-CoV-2 M^pro (Severe acute respiratory syndrome coronavirus 2, UniProt P0DTD1)"
recorded_endpoint = "IC50"
comparison_sign = "="
quantitative_readout = 0.36

[[record]]
compound = "CSCC[C@@H](C=O)NC(=O)[C@H](CC(C)C)NC(=O)[C@H](CC(C)C)NC(=O)OC(C)(C)C [Jun9-2-4] (Boc-Leu-Leu-Met-aldehyde)"
target_entity = "SARS-CoV-2 M^pro (Severe acute respiratory syndrome coronavirus 2, UniProt P0DTD1)"
recorded_endpoint = "IC50"
comparison_sign = "="
quantitative_readout = 0.39

[[record]]
compound = "CCC[C@H](NC(=O)[C@H](CC(C)C)NC(=O)[C@@H](NC(=O)OCc1ccccc1)C(C)C)C(=O)C(=O)NC1CC1 [Jun8-29-2]"
target_entity = "SARS-CoV-2 M^pro (Severe acute respiratory syndrome coronavirus 2, UniProt P0DTD1)"
recorded_endpoint = "IC50"
comparison_sign = "="
quantitative_readout = 0.48

[[record]]
compound = "CSCC[C@@H](C=O)NC(=O)[C@H](CC1CCCCC1)NC(=O)[C@@H](NC(C)=O)C(C)(C)C [Jun9-66-1] (Ac-[Tle]-[Cha]-Met-aldehyde)"
target_entity = "SARS-CoV-2 M^pro (Severe acute respiratory syndrome coronavirus 2, UniProt P0DTD1)"
recorded_endpoint = "IC50"
comparison_sign = "="
quantitative_readout = 0.32

[[record]]
compound = "CSCC[C@H](NC(=O)[C@H](CC(C)C)NC(=O)[C@H](CC(C)C)NC(C)=O)C(=O)C(=O)NC1CC1 [Jun9-11-3]"
target_entity = "SARS-CoV-2 M^pro (Severe acute respiratory syndrome coronavirus 2, UniProt P0DTD1)"
recorded_endpoint = "IC50"
comparison_sign = "="
quantitative_readout = 0.54

[[record]]
compound = "CSCC[C@@H](C=O)NC(=O)[C@H](CC(C)C)NC(=O)OC(C)(C)C [Jun9-2-3] (Boc-Leu-Met-aldehyde)"
target_entity = "SARS-CoV-2 M^pro (Severe acute respiratory syndrome coronavirus 2, UniProt P0DTD1)"
recorded_endpoint = "IC50"
comparison_sign = ">"
quantitative_readout = 20

[[record]]
compound = "CSCC[C@H](NC(=O)[C@H](CC(C)C)NC(=O)[C@H](CC1CCCCC1)NC(C)=O)C(=O)C(=O)NC1CC1 [Jun9-66-4]"
target_entity = "SARS-CoV-2 M^pro (Severe acute respiratory syndrome coronavirus 2, UniProt P0DTD1)"
recorded_endpoint = "IC50"
comparison_sign = "="
quantitative_readout = 0.22

[[record]]
compound = "CCC[C@@H](C=O)NC(=O)[C@H](CC(C)C)NC(=O)CNC(=O)OCc1ccccc1 [Jun9-52-3] (Cbz-Gly-Leu-[Nva]-aldehyde)"
target_entity = "SARS-CoV-2 M^pro (Severe acute respiratory syndrome coronavirus 2, UniProt P0DTD1)"
recorded_endpoint = "IC50"
comparison_sign = ">"
quantitative_readout = 20

